tgt: AT2 receptor of angiotensin II (Oryctolagus cuniculus, UniProt G1T351)
Sequence (G1T351 1-363): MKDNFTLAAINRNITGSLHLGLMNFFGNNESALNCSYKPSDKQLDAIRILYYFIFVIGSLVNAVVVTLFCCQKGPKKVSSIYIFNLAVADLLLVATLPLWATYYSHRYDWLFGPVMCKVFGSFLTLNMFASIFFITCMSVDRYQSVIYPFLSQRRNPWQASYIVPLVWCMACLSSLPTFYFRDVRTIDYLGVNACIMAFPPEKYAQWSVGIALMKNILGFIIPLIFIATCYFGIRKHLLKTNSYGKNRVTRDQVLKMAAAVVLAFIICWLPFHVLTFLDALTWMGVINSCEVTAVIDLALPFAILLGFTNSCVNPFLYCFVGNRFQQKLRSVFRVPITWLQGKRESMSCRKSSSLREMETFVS
Consider the following molecules; for each one, report its pIC50.
Numbers only, as −log10 of the molar value.

Examples with answers:
- CCCCc1nc(SC)c(C(=O)CC(=O)OCC)n1Cc1ccc(-c2ccccc2S(=O)(=O)NC(=O)NCc2ccccc2)cc1: 9.00
- CCCCc1nc(SC)c(C(=O)C(=O)NCc2ccccc2)n1Cc1ccc(-c2ccccc2S(=O)(=O)NC(=O)NCc2ccccc2)cc1: 7.28

// next item, pIC50 requested
get_value(item= CCCCc1nc(SC)c(C(=O)C[S+](C)[O-])n1Cc1ccc(-c2ccccc2S(=O)(=O)NC(=O)NCc2ccccc2)cc1 (stereo not drawn) , readout=pIC50) returns 7.82
